# test.details: Multiple oral dosing for 14 days, pharmacokinetics in HCV infected subjects (Example 3)
# Assay type: in vivo, human
# experimental.conditions: human, plasma, oral, 200 mg, Day 14, 200 mg BID, mean

molecule: CC(C)(C)NC(=O)N[C@H](C(=O)N1C[C@H]2[C@@H]([C@H]1C(=O)NC(CC1CCC1)C(=O)C(N)=O)C2(C)C)C(C)(C)C (mixture of isomers) [Formula Ia]
unit.abbrev: L
Vd/F: 2910

###

# test.details: Phase 1 rising-single-dose pharmacokinetic study in healthy adult subjects (Example 1)
# Format: in vivo, human
# experimental.conditions: human, plasma, po, 600 mg, single oral dose 600 mg, mean, n = 6; read-out: AUC(tf)

compound: CC(C)(C)NC(=O)N[C@H](C(=O)N1C[C@H]2[C@@H]([C@H]1C(=O)NC(CC1CCC1)C(=O)C(N)=O)C2(C)C)C(C)(C)C (mixture of isomers) [Formula Ia]
AUC: 2140 ng·h/mL
